Every entry's value here was drawn from patent US20220282217A1.

Tested system: T1, HLA-A11.01 (human)
T1 construct: Purified class I MHC
Assay notes: pMHC-I dissociation half-life, 125I-b2m
Reported Measured stability values for a set of binders

[
  {
    "Binder": "VVVGADGVGK (also called KRAS, G12D)",
    "Measured stability [h]": 13
  },
  {
    "Binder": "VVGADGVGK (also called KRAS, G12D)",
    "Measured stability [h]": 3.4
  },
  {
    "Binder": "VVVGAVGVGK (also called KRAS, G12V)",
    "Measured stability [h]": 24.3
  },
  {
    "Binder": "VVGACGVGK (also called KRAS, G12C)",
    "Measured stability [h]": 10
  }
]
